Parameter GI50: see the listing below.
tested on: SR leukemia; assay: NCI tumour cell line growth inhibition, 48 h

COMPOUND: CC(=O)c1c[nH]c2ccc(-c3ccnc(Nc4ccc(NC(=O)c5cccc(F)c5)c(CN5CCOCC5)c4)n3)cc12
TESTED_SYSTEM: SR leukemia
GI50: 36.3 nM

COMPOUND: COc1cc(OC)cc(-c2n[nH]nc2-c2ccc3c(c2)OCO3)c1
TESTED_SYSTEM: SR leukemia
GI50: 43.6 nM

COMPOUND: C=CC[n+]1c(/C=C2\Sc3ccccc3N2C)sc(-c2ccccc2)c1-c1ccccc1
TESTED_SYSTEM: SR leukemia
GI50: 353 nM

COMPOUND: Oc1ccc(Br)cc1CN1CCN(Cc2ccc(Cl)cc2)CC1
TESTED_SYSTEM: SR leukemia
GI50: 19100 nM

COMPOUND: N#CC1=C(N)Oc2c(sc3c(F)cccc23)C1c1ccc(Cl)cc1 (configuration not stated)
TESTED_SYSTEM: SR leukemia
GI50: 1600 nM

COMPOUND: CN1CCN(c2nc(C3=C(c4c[nH]c5ccccc45)C(=O)NC3=O)c3ccccc3n2)CC1
TESTED_SYSTEM: SR leukemia
GI50: 11600 nM

COMPOUND: COc1cc(Oc2cnc3cc(N)cc(N)c3n2)cc(OC)c1OC
TESTED_SYSTEM: SR leukemia
GI50: 14000 nM

###

Parameter TGI: see the listing below.
system: BT-549 breast; experiment: NCI tumour cell line growth inhibition, 48 h
MEASUREMENT_TYPE: TGI

COMPOUND: O=C1CCc2cc([N+](=O)[O-])ccc2O1
TESTED_SYSTEM: BT-549 breast
MEASUREMENT_TYPE: TGI
READING: > 100 µM
--
COMPOUND: COC(=O)[C@@]12CC3CN(Cc4c1[nH]c1ccccc41)C2CC3=O
TESTED_SYSTEM: BT-549 breast
MEASUREMENT_TYPE: TGI
READING: > 100 µM
--
COMPOUND: CC1CCC(O)/C=C/C(=O)OC(C)C(O)/C=C/C(=O)O1 (configuration not stated)
TESTED_SYSTEM: BT-549 breast
MEASUREMENT_TYPE: TGI
READING: > 100 µM
--
COMPOUND: CO/C=C(/C(=O)OC)c1ccccc1[C@H]1C[C@@H]1c1ccc(OC)cc1
TESTED_SYSTEM: BT-549 breast
MEASUREMENT_TYPE: TGI
READING: 46.6 µM
--
COMPOUND: O=C(/C=C/c1ccccc1O)CC(=O)/C=C/c1ccccc1O
TESTED_SYSTEM: BT-549 breast
MEASUREMENT_TYPE: TGI
READING: 45.7 µM
--
COMPOUND: CC(C)=CCC[C@@H](C)c1c(O)c(O)c(C)c2nc3ccccc3nc12
TESTED_SYSTEM: BT-549 breast
MEASUREMENT_TYPE: TGI
READING: 17.1 µM
--
COMPOUND: CSc1nc(NC2CC2)c2c(n1)Sc1nc3ccccc3n1N=C2
TESTED_SYSTEM: BT-549 breast
MEASUREMENT_TYPE: TGI
READING: > 100 µM
--
COMPOUND: Nc1ncnc2c1ncn2C1OC(CO)C(O)C1O (configuration not stated)
TESTED_SYSTEM: BT-549 breast
MEASUREMENT_TYPE: TGI
READING: 59 µM
--
COMPOUND: CCOC(=O)n1c2ccccc2c2c(O)c(OC)c3c(c21)C(=O)NC3=O
TESTED_SYSTEM: BT-549 breast
MEASUREMENT_TYPE: TGI
READING: > 100 µM
--
COMPOUND: NCCCCN(CCCN)C(=O)OCc1ccccc1
TESTED_SYSTEM: BT-549 breast
MEASUREMENT_TYPE: TGI
READING: > 100 µM
--
COMPOUND: O=c1[nH]nc(Nc2ccccc2)c2nnn(Cc3ccccc3)c12
TESTED_SYSTEM: BT-549 breast
MEASUREMENT_TYPE: TGI
READING: > 100 µM
--
COMPOUND: COc1c(Cl)ccc(Cl)c1-c1nnc(-c2c(Cl)c(Cl)c(Cl)c(Cl)c2-c2nc3ccc(C(=O)c4ccccc4)cc3[nH]2)o1
TESTED_SYSTEM: BT-549 breast
MEASUREMENT_TYPE: TGI
READING: > 100 µM
--
COMPOUND: O=C(NCCc1ccc(F)cc1)c1cc(/C=C/c2cc(O)ccc2O)ccc1O
TESTED_SYSTEM: BT-549 breast
MEASUREMENT_TYPE: TGI
READING: 2.97 µM
--
COMPOUND: CCOC(=O)C(C(N)=O)c1nc2cc([N+](=O)[O-])ccc2nc1/C=C(\O)c1ccc(C)cc1 (configuration not stated)
TESTED_SYSTEM: BT-549 breast
MEASUREMENT_TYPE: TGI
READING: 51.4 µM
--
COMPOUND: COc1ccc2c(c1)Cc1cc(N=[N+]([O-])c3ccc4c(c3)Cc3cc(OC)ccc3-4)ccc1-2
TESTED_SYSTEM: BT-549 breast
MEASUREMENT_TYPE: TGI
READING: > 100 µM
--
COMPOUND: C=CCn1c(-c2ccc(N=NNc3ccc(-c4n[nH]c(=S)n4CC=C)cc3)cc2)n[nH]c1=S
TESTED_SYSTEM: BT-549 breast
MEASUREMENT_TYPE: TGI
READING: 6.68 µM
--
COMPOUND: c1ccc2c(c1)N=c1ccccc1=P21c2ccccc2Nc2ccccc21
TESTED_SYSTEM: BT-549 breast
MEASUREMENT_TYPE: TGI
READING: 2.63 µM
--
COMPOUND: COc1ccc(/C(C#N)=C/c2nc3c(N4CCOCC4)nc(Cl)nc3n2C)cc1OC
TESTED_SYSTEM: BT-549 breast
MEASUREMENT_TYPE: TGI
READING: 0.244 µM
--
COMPOUND: CC(=O)NC1=NC(=O)/C(=C/c2ccc(Cl)cc2Cl)N1C
TESTED_SYSTEM: BT-549 breast
MEASUREMENT_TYPE: TGI
READING: > 100 µM
--
COMPOUND: C=CC[n+]1c(/C=C2\Sc3ccccc3N2C)sc(-c2ccccc2)c1-c1ccccc1
TESTED_SYSTEM: BT-549 breast
MEASUREMENT_TYPE: TGI
READING: 0.907 µM
--
COMPOUND: CCCCc1ccc(Nc2nc(N)c3[nH]cnc3n2)cc1
TESTED_SYSTEM: BT-549 breast
MEASUREMENT_TYPE: TGI
READING: 47.9 µM
--
COMPOUND: CC(C)n1c2c(c3ccccc3c1=O)C(=O)c1ccccc1-2
TESTED_SYSTEM: BT-549 breast
MEASUREMENT_TYPE: TGI
READING: > 100 µM
